tested on: SW-620 colon; test: NCI-60 one-dose screen, 48 h; conditions: 10 µM unless noted
About 83,000 compounds went through this panel and 20% of them were active in at least one assay; those are over-represented in the sample as a whole. Calls of active or inactive are those of the source. The calls were made as follows: active = growth percent below 10; inactive = the rest.
Your answer must be one of the following: active, inactive

Recorded test outcome, item C#CC(=O)Nc1cccc(Nc2nc3c(c(NCc4ccccc4)n2)CCCC3)c1
active

// same read-out, input: NC(=O)c1cccc(-c2ccccc2N2CCCCC2)c1
inactive

* * *

For each of the compounds below, state its growth.
test system: SK-MEL-2 melanoma; test: NCI-60 one-dose screen, 48 h (100 = growth as untreated, 0 = no growth, -100 = all killed); conditions: 10 µM unless noted
This is part of a sample that, as a whole, favours compounds with a hit. Of some 83,000 tested, about 20% had one in any assay.
Give bare numbers, in %.

Here are 3 compounds together with their reported answers.
compound	numeric result
COc1ccc(/C=C/c2n[nH]c3ccc(N4CCOC4=O)cc23)cc1	11.7
COc1cccc2cc(-c3cc4ccccc4[nH]3)/c(=N/C(=S)Nc3ccc(C)cc3)oc12	85
CC(C)(C)OC(=O)N1CCN(c2ccc(N)cc2)C(=O)C1	111

Give growth for all compounds that follow.
1. C=C(C)[C@@H]1CC[C@]2(C(=O)NCC(=O)OC)CC[C@]3(C)[C@H](CC[C@@H]4[C@@]5(C)Cc6c([nH]c7ccccc67)C(C)(C)[C@@H]5CC[C@]43C)[C@@H]12
2. CCOc1cc(CNc2ccc(N3CCOCC3)c(C(=O)O)c2)ccc1OC
3. COC(=O)Nc1nc2ccc(C(=O)c3cccc(I)c3)cc2[nH]1
4. Nc1ccccc1NC(=O)c1ccc(CN2CCC/C(=C\c3cccc(Cl)c3)C2=O)cc1
5. O=c1[nH]nc(-c2ccc(Cl)cc2)cc1Cc1cccc([N+](=O)[O-])c1
6. CC1(C)CN(c2cnc(C(=O)Nc3cc(F)cc4cccnc34)cn2)CCN1
7. CCCCCCCCCCCC(=O)C(CCCCCCCCCC)C(=O)Nc1ccccc1 (stereo not given)

78.2
98.7
12.1
11.1
174
99.8
98.8

Give growth for all compounds that follow.
1. CN1CCN(CCCOc2ccc3ncnc(Nc4ccc(Oc5cccc(C(F)(F)F)c5)c(Cl)c4)c3c2)CC1
2. CN1C2CCC1CN(c1cnc(C(=O)Nc3cc(F)cc4cccnc34)cn1)C2
3. CC1=NNC(=O)C1CCC(=O)N/N=C(\C)c1ccc2ccccc2c1 (stereo not given)
4. Cc1c2c(cc[n+]1Cc1ccc(F)cc1)c1ccc(OCc3cccc(F)c3)cc1n2Cc1cccc(F)c1
5. Fc1ccc(C2CC(c3cccc(Nc4ccncc4)c3)=NN2c2ccccc2)cc1 (stereo not given)

40.3
109
102
-81.3
90.2

Give growth for all compounds that follow.
1. O=C1/C(=C\c2cn(Cc3ccccc3)c3ccc(Br)cc23)c2ccccc2N1c1c(Cl)cccc1Cl
2. COc1cccc2c1C(=O)c1c(O)c3c(c(O)c1C2=O)C[C@@](O)(C(=O)CO)C[C@@H]3O[C@H]1C[C@H](N)[C@@H](O)[C@H](C)O1
3. COc1ccc(C(O)c2cc3c(N)c(C(=O)Nc4cccc(Br)c4C)sc3nc2C)cc1 (stereo not given)
4. COc1cc(-c2nc3occn3c2-c2ccnc(NCCNS(=O)(=O)c3ccc(Cl)cc3)n2)ccc1F
5. CCOC(=O)C1CC(=O)c2cc(OC)c(OC)cc2C1 (stereo not given)

1: 101; 2: -72.9; 3: 9.35; 4: 71.9; 5: 107

* * *

system: UACC-62 melanoma; assay: NCI-60 one-dose screen, 48 h; details: 10 µM unless noted
This is part of a sample that, as a whole, favours compounds with a hit. Of some 83,000 tested, about 20% had one in any assay. The source made the active and inactive calls. Rule for the calls: active = growth percent below 10; inactive = the rest.
Your answer must be one of the following: class 1 (active), class 0 (inactive)

compound	class label
COC(=O)C1=C(C(=O)ONCCN(C)C)C2C=CC1(C(Cc1ccccc1)Nc1ccc(F)cc1)O2 (stereo unspecified)	class 0
CCCCCCCCOC(=O)c1ccc(O)c(OC)c1	class 0
COc1cccc(CCC(=O)c2cc3c(N)c(C(=O)Nc4cccc(Cl)c4C)sc3nc2C)c1	class 0

Now for another entry.
Recorded test outcome, item N#Cc1cc(-c2nc3ccccc3s2)c(=O)n(NS(=O)(=O)c2ccc(Cl)cc2)c1N
class 0

* * *

tested on: NCI-H522 lung; assay: NCI-60 one-dose screen, 48 h; details: 10 µM unless noted
Compounds without any hit were thinned out: in the full panel of roughly 83,000, 20% have a hit. Active and inactive are the calls of the source. How the source made its calls: active means growth percent below 10; inactive means the rest.
Your answer must be one of the following: active, inactive

Sample answers from the record:
compound	class label
O=C1Nc2c(ccc(Cl)c2Cl)/C1=C/c1ccc([N+](=O)[O-])cc1	inactive
CC(=O)OC1CCC2(C)C(CCC3C4CC=C(C(C)=O)C4(C)OC(=O)CC32)C1 (centres undefined)	active
COc1cc(-c2cc(=O)oc3cc(O)ccc23)cc(OC)c1OC	inactive

Recorded test outcome, item c1ccc(-c2nn(-c3ccccc3)[n+](-c3ccccc3-c3ccccc3)n2)cc1
active

* * *

system: SK-OV-3 ovarian; experiment: NCI-60 one-dose screen, 48 h; conditions: 10 µM unless noted
Compounds without any hit were thinned out: in the full panel of roughly 83,000, 20% have a hit. Active and inactive are the calls of the source. The calls were made as follows: active = growth percent below 10; inactive = the rest.
Your answer must be one of the following: yes (1) (active), no (0) (inactive)

Sample answers from the record:
molecule	class label
COc1ccc(C2=C(c3ccccc3)c3ccc(OC(C)=O)cc3OC2(C)C)cc1	no (0)
CC(=O)[C@@H]1CC[C@]2(C(=O)n3ccnc3)CC[C@]3(C)[C@H](CC[C@@H]4[C@@]5(C)Cc6c([nH]c7ccccc67)C(C)(C)[C@@H]5CC[C@]43C)[C@@H]12	no (0)
CCCN=C(N)c1ccc(NC(=O)c2ccc(C(=O)Nc3ccc(C(N)=NCCC)cc3)cc2)cc1	no (0)
Cc1[nH]n(C(=O)c2ccncc2)c(=O)c1N=Nc1ccc(F)c(Cl)c1	no (0)

Recorded test outcome, item CC1(c2ccccc2)NC(=O)N(CC(=O)Nc2cccc(I)c2)C1=O (stereo not drawn)
no (0)

* * *

test system: MCF7 breast; experiment: NCI-60 one-dose screen, 48 h (100 = growth as untreated, 0 = no growth, -100 = all killed); details: 10 µM unless noted
This is part of a sample that, as a whole, favours compounds with a hit. Of some 83,000 tested, about 20% had one in any assay.
For each of the compounds below, state its growth.
One number for each entry, in %.

Here are 5 compounds together with their reported answers.
compound	target of assay	growth (%)
O=C(Nc1ccc(Cl)cc1)Nc1ccc(Cl)c(Cl)c1	MCF7 breast	-4.33
O=C1NC(=O)C(=Cc2cn(Cc3ccccn3)c3ccccc23)C(=O)N1	MCF7 breast	87.6
O=C(CN1CCOCC1)Nc1ccc2ncnc(Nc3ccc(Oc4cccc(C(F)(F)F)c4)c(Cl)c3)c2c1	MCF7 breast	34.2
COc1ccc(C(=O)c2cc3c(N)c(C(=O)Nc4cccc(Cl)c4)sc3nc2C)cc1	MCF7 breast	26.5
CC(=O)c1cc2c(N)c(C(=O)Nc3cncc4ccccc34)sc2nc1C	MCF7 breast	91.6

Give growth for all compounds that follow.
1. COc1ccc(Cn2nc(-c3ccccc3)c3c2CCc2cnoc2-3)cc1
2. COc1c(Cl)cc(Cl)c2ccc(C=C3C(=O)NC(=S)NC3=O)nc12
3. Fc1ccc(C2CC(c3cccc(Nc4ccncc4)c3)=NN2c2ccc(Cl)cc2)cc1 (centres undefined)
4. CCCCCCC/C=C/[C@H]1O[C@]2(O)C(=O)C=C3C[C@@H](O[C@@H]4O[C@H](CO)[C@@H](O)C(O)[C@@H]4O)C[C@@H]3[C@H]2C=C1C (some centres undefined)

1. 72.6
2. 90.7
3. 6.6
4. 8.66

Give growth for all compounds that follow.
1. COc1ccc(Cl)cc1NC(=O)c1c(NC(=O)C(F)(F)C(F)(F)F)sc2c1CCCCC2
2. Brc1ccc(C2CC(c3cccc(Nc4ccncc4)c3)=NN2c2ccccc2)cc1 (centres undefined)

4.9
24.5

Give growth for all compounds that follow.
1. Cc1c2c(cc[n+]1Cc1ccccc1)c1ccc(OCC3CCCCC3)cc1n2CC1CCCCC1
2. COc1ccc2nc(N=Nc3c(O)ccc4ccccc34)sc2c1
3. CCCCCCCCCCCCCCCC(=O)OC[C@@]1(O)C[C@@]23CC[C@@H]4C(C)(C)CCC[C@@]4(C)[C@@H]2CC[C@H]1C3
4. O=C(CNCCO)Nc1ccc2ncnc(Nc3ccc(OCc4cccc(F)c4)c(Cl)c3)c2c1
5. O=C(O)C(/C=C/c1ccco1)=N\Nc1nc(-c2ccc(Cl)cc2)cs1

1. -92.3
2. 13.9
3. 60.5
4. 82.5
5. 71.9

Give growth for all compounds that follow.
1. CCOC(=O)N1CCc2c(sc3nc4nc[nH]n4c(=O)c23)C1
2. CC(C)(C)OC(=O)N1CCN(c2ccc(N)cc2)C(=O)C1

93.5
91.9
